Cited source: ChEMBL document CHEMBL1201862

# maps each entry to its GI50
# Test system: UACC-62
# EXPERIMENTAL DETAILS: NCI tumour cell line growth inhibition, 48 h
Activity calls are given as the source filed them. Cut-off read from the data, not from the text of the source: active = GI50 up to about 1.1 µM and inactive = higher.
READOUT NAME: GI50

>>> value_observed("COc1cc2c(NCCCCCCO[N+](=O)[O-])ncnc2c(OC)c1OC")
"18.2 µM (inactive)"
>>> value_observed("COc1cccc2c1-c1c(OC)cccc1SS2")
"20.1 µM (inactive)"
>>> value_observed("O=S(=O)(Cc1nc2ccccc2s1)c1nc2ccccc2s1")
"16 µM (inactive)"
>>> value_observed("Cc1cccc2nc3n(c12)C(=O)c1ccccc1-3")
"> 100 µM (inactive)"
>>> value_observed("CCn1c(CCl)nc2c1C(=O)c1ccccc1C2=O")
"1.28 µM (inactive)"
>>> value_observed("NC12Oc3cc(O)cc(O)c3C1(c1ccc(Cl)cc1)c1c(O)cc(O)cc1O2 (centres undefined)")
"42 µM (inactive)"
>>> value_observed("[N-]=[N+]=C1C(=O)C2CC3CC(C2)CC1C3")
"> 100 µM (inactive)"
>>> value_observed("C/C(=N\\NC(=S)N1CCN(C2CCCCCC2)CC1)c1ccccn1")
"< 0.012 µM (active)"
>>> value_observed("CCOC(=O)[C@]12C3C=CC(C3)C1C(=O)C1OC12 (some centres undefined)")
"> 100 µM (inactive)"
>>> value_observed("O=[N+]([O-])c1cnc(N(CCO)CCO)s1")
"> 100 µM (inactive)"
>>> value_observed("O=c1[nH]c(NCc2cccnc2)nc2[nH]cnc12")
"> 100 µM (inactive)"
>>> value_observed("COC(=O)[C@@H]1C[C@]2(Br)c3ccccc3N(S(=O)(=O)c3ccccc3)[C@@H]2N1C(=O)OC")
"62.1 µM (inactive)"
>>> value_observed("Nn1c(=S)[nH]nc(/C=C/c2c(O)ccc3ccccc23)c1=O")
"4.88 µM (inactive)"
>>> value_observed("CCSC1=N/C(=C/c2ccccc2O)C(=O)N1")
"> 100 µM (inactive)"
>>> value_observed("C=C1CC(C)(COc2ccc3ccc(=O)oc3c2)OC1=O (centres undefined)")
"2.94 µM (inactive)"
>>> value_observed("CC1(C(=O)Nc2ccc3ccccc3c2)CC2(C)CC(C)(C1)C(O)NC2=O (centres undefined)")
"> 100 µM (inactive)"
>>> value_observed("CC(C)c1ccc2nc3ccc(C(=O)NCCN4CCN(c5ccccc5)CC4)cn3c(=O)c2c1")
"3.87 µM (inactive)"
>>> value_observed("CCC1=C(CC)C1(C#N)[N+](=O)[O-]")
"> 100 µM (inactive)"
>>> value_observed("CC(C)C1=CCC2C(=C1)CCC1C(C)(C(=O)O)CCCC21C (centres undefined)")
"> 100 µM (inactive)"
>>> value_observed("CC1(C)OCC2OC3([C@@H]4OC(C)(C)O[C@H]4CO)OC(C)(C)OC3C2O1 (some centres undefined)")
"> 100 µM (inactive)"
>>> value_observed("COC(O)C(=O)c1c2c(cc3c1CCC3)CCCC2 (centres undefined)")
"3.47 µM (inactive)"
>>> value_observed("CCCCOC(=O)/C(CC(=O)C=C(C)C)=N\\NS(=O)(=O)c1ccc(C)cc1")
"> 100 µM (inactive)"
>>> value_observed("CCCCC(C)/C=C/C(O)=C1\\C(=O)O/C(=C\\C(=O)O)C1=O (centres undefined)")
"> 100 µM (inactive)"
>>> value_observed("COc1cc2c(cc1OC)C1C(O)C(OC)C(Br)C3(Br)CCN(C2)C13 (centres undefined)")
"> 100 µM (inactive)"
>>> value_observed("COc1ccc(Nc2nc(N)c(C(=O)c3cccs3)s2)cc1")
"11.3 µM (inactive)"
>>> value_observed("O=C1C=C(c2ccccc2)NC1(c1ccccc1)c1cc(-c2ccccc2)[nH]c1-c1ccccc1 (centres undefined)")
"> 100 µM (inactive)"
>>> value_observed("COc1ccc(/C=N/N=C(\\N)NO)c(OC)c1OC")
"20.6 µM (inactive)"
>>> value_observed("O=C(NN=C1CCN(Cc2ccccc2)CC1)C(O)(c1ccccc1)c1ccccc1")
"> 100 µM (inactive)"
>>> value_observed("CC1=C2C=CC(=O)C[C@@]2(C)CCC1")
"> 100 µM (inactive)"
>>> value_observed("Cc1ccc(-c2cs/c(=N\\c3ccccc3)n2NC(=O)c2ccncc2)cc1")
"20.5 µM (inactive)"
>>> value_observed("O=C(Cn1c2ccc(Br)cc2c2nc3ccccc3nc21)NNC(=O)NC1CCCCC1")
"> 100 µM (inactive)"
>>> value_observed("C=C[C@]1(C)CC(O)C2C(=C)C(=O)OC2[C@H]1C(=C)C=O (some centres undefined)")
"1.79 µM (inactive)"
>>> value_observed("CCOP(=O)(O)CN1CCNCCN(CP(=O)(O)OCC)CCNCC1")
"> 100 µM (inactive)"
>>> value_observed("COC(=O)NC12CC3CC(CC(F)(C3)C1)C2")
"> 100 µM (inactive)"
>>> value_observed("CCCN1CN(C(C(=O)N[C@@H]2C(=O)N3C(C(=O)O)=C(C)CSC23)c2ccccc2)CSC1=S (some centres undefined)")
"> 100 µM (inactive)"
>>> value_observed("CSc1nc2c(c(=O)[nH]1)N=C(c1ccccc1)CC(c1ccccc1)N2 (centres undefined)")
"23.6 µM (inactive)"
>>> value_observed("CC(=O)O[C@H]1[C@@H](OC2CCCC2(c2ccccc2)c2ccccc2)O[N+]([O-])=C[C@@H]1c1ccccc1 (some centres undefined)")
"4.66 µM (inactive)"
>>> value_observed("C[C@@H]1C[C@H](O)[C@]2(O)O[C@@H]3C[C@@]4(C=O)[C@@H](CC[C@@H]5[C@@H]4CC[C@]4(C)[C@@H](C6=CC(=O)OC6)CC[C@]54O)C[C@H]3O[C@@H]2O1")
"0.0718 µM (active)"
>>> value_observed("CC(=O)N1CC2Nc3ccccc3C2CC1CO (centres undefined)")
"> 100 µM (inactive)"
>>> value_observed("O=C(O)NC(c1ccccc1)C(NC(=O)c1ccccc1)c1ccccc1 (centres undefined)")
"> 100 µM (inactive)"
>>> value_observed("Nc1ccc2c(=O)cc(-c3cccs3)[nH]c2n1")
"2.3 µM (inactive)"
>>> value_observed("CC1CC/C(=C\\c2ccc(F)cc2)C2=C1C(c1ccc(F)cc1)NC(=S)N2 (centres undefined)")
"> 100 µM (inactive)"
>>> value_observed("Cc1cc(NN)nc2[nH]nc(N)c12")
"> 100 µM (inactive)"
>>> value_observed("CCOC(=O)C1=NNC(C(=O)c2ccccc2)C1c1ccccc1 (centres undefined)")
"3.18 µM (inactive)"
